# Tested system: KRAS^G12D protein (Homo sapiens, UniProt P01116, G12D)
# Construct: host or cells: Aspc-1 (AsPC-1) cells
# Sequence (P01116 1-188 isoform P01116-2 G12D): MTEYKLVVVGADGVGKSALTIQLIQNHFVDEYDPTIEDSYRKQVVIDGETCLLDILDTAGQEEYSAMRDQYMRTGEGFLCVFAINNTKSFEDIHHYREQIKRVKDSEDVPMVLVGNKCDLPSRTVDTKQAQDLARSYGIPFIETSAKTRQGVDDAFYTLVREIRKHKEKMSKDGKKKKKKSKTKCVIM
# Protocol notes: Protein degradation study (western blot) in Aspc-1 cells
# Type: cell-based
# Particulars: ASPC1, 24 h, Aspc-1 cells treated with 0.1 μM compound, 24 hours; read-out: Rate of protein degradation
Measured metric: inhibition at 0.1 µM

{"columns": ["Compound", "inhibition at 0.1 µM"],
 "data": [
  ["C#Cc1c(F)ccc2cc(O)cc(-c3ncc4c(N5CC6CCC(C5)N6)nc(OCC5(CN6CCC(C(=O)N7CCC(c8ccc9c(C%10CCC(=O)NC%10=O)nn(C)c9c8)CC7)CC6)CC5)nc4c3F)c12 (stereo not shown) [Compound 100]", "> 60%"],
  ["C#Cc1c(F)ccc2cc(O)cc(-c3ncc4c(N5CC6CCC(C5)N6)nc(OCC5(CN6CCC(c7ccc8c(C9CCC(=O)NC9=O)nn(C)c8c7)CC6)CC5)nc4c3F)c12 (stereo not shown) [Compound 99]", "> 60%"],
  ["C#Cc1c(F)ccc2cc(O)cc(-c3ncc4c(N5CC6CCC(C5)N6)nc(OC5CCN(CC6CCN(C(=O)C[C@H](NC(=O)[C@@H]7C[C@@H](O)CN7C(=O)[C@@H](NC(=O)C7(F)CC7)C(C)(C)C)c7ccc(-c8scnc8C)cc7)CC6)CC5)nc4c3F)c12 [Compound 70]", "11 to 30%"]
]}

Next, consider the following compound.
The compound listed as C#Cc1c(F)ccc2cc(O)cc(-c3ncc4c(N5CC6CCC(C5)N6)nc(OC5CCN(CC(=O)N6CCC7(CC6)CC(N6CCC(c8ccc9c(C%10CCC(=O)NC%10=O)nn(C)c9c8)CC6)C7)C5)nc4c3F)c12 (stereo not shown) [Compound 101] shows inhibition at 0.1 µM equal to 11 to 30%

====

Each entry below lists one item and its recorded inhibition at 0.005 µM value.
# Tested system: KRAS^G12D protein (Homo sapiens, UniProt P01116, G12D)
# Construct: host or cells: Aspc-1 (AsPC-1) cells
# Protocol notes: Protein degradation study (western blot) in Aspc-1 cells
# Assay type: cell-based
# Particulars: ASPC1, 24 h, Aspc-1 cells treated with 0.005 μM compound, 24 hours; read-out: Rate of degradation

{"columns": ["Compound", "Measured metric", "Measured value"],
 "data": [
  ["C#Cc1c(F)ccc2cc(O)cc(-c3ncc4c(N5CC6CCC(C5)N6)nc(OCC5(CN6CCC(N7CC(N8CCC(c9ccc%10c(C%11CCC(=O)NC%11=O)nn(C)c%10c9)CC8)C7)CC6)CC5)nc4c3F)c12 (centres unmarked) [Compound 34a]", "inhibition at 0.005 µM", "31 to 60%"]
]}

Recorded result, C#Cc1c(F)ccc2cc(O)cc(-c3ncc4c(N5CC6CCC(C5)N6)nc(OCC5(CN6CCC7(CC6)CC(N6CCC(c8ccc(NC9CCC(=O)NC9=O)cc8F)CC6)C7)CC5)nc4c3F)c12 (centres unmarked) [Compound 12a] , inhibition at 0.005 µM: > 60%

According to the records, this compound Nc1cc(Cl)c(C(F)(F)F)c(-c2ncc3c(N4CC5CCC(C4)N5)nc(OCC4(CN5CCC6(CC5)CC(N5CCC(c7cccc(N8CCC(=O)NC8=O)c7)CC5)C6)CC4)nc3c2F)c1 [Compound 19a] displays inhibition at 0.005 µM of 11 to 30%

inhibition at 0.005 µM in this record for C#Cc1c(F)ccc2cc(O)cc(-c3ncc4c(N5CC6CCC(C5)N6)nc(OCC5(CN6CC7(CC(C(=O)N8CCC(c9ccc%10c(C%11CCC(=O)NC%11=O)nn(C)c%10c9)CC8)C7)C6)CC5)nc4c3F)c12 (centres unmarked) [Compound 27a] : 11 to 30%

The compound identified as C#Cc1c(F)ccc2cccc(-c3ncc4c(N5CC6CCC(C5)N6)nc(OCC5(CN6CCC7(CC6)CC(N6CCC(c8ccc9c%10c(cccc8%10)C(=O)N9C8CCC(=O)NC8=O)CC6)C7)CC5)nc4c3F)c12 (centres unmarked) [Compound 14a] registered its inhibition at 0.005 µM at > 60%
